Values compiled from ChEMBL document CHEMBL5104216.

System: Mycobacterium tuberculosis
assay overview: Inhibition of Mycobacterium tuberculosis MetAP1a assessed as residual activity at 625 uM using L-methionine 7-amido-4-methylcoumarin as fluorogenic substrate and measured by fluorescence based assay
Activity vs 90%: less than gives true; not less than gives false.

- COC(=O)C(=O)Nc1ncc(Br)s1: false
- Nc1nnc(C(F)(F)F)s1: false
- Brc1cscn1: true
- CNc1nnc(C(F)(F)F)s1: false
- Nc1ccc(S(=O)(=O)Nc2nccs2)cc1: false
- CCOC(=O)Cc1csc(N)n1: false

In: Does the reported Activity of the following compound sit strictly below 90%? N#Cc1cnc(Br)s1
Out: false

In: Does O=C(O)c1scnc1Br have Activity strictly under 90%?
Out: false
